- System: Escherichia coli TOP10;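 further: peptides expressed intracellularly from a pBAD plasmid library in pooled LB shake-flask culture, induced with 0.3% L-arabinose, DNA abundance read by NGS, three biological replicates, DESeq2 with apeglm shrinkage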
- test_method_notes: shrunken log2 fold change of peptide-encoding DNA abundance (4.5 h post-induction vs induction); higher = less antimicrobial activity (less host growth inhibition)
- conditions: time post-induction: 4.5 h; library: site-saturation at positions 5, 18, 19, 20
measured_metric: shrunken log2 fold change

monomer_sequence=RRIRARPPRLPRPRPRPKCPPRP endpoint_result=-0.0505
monomer_sequence=RRIRSRPPRLPRPRPRPAREPRP endpoint_result=0.0982
monomer_sequence=RRIRVRPPRLPRPRPRPQDGPRP endpoint_result=-0.00098
monomer_sequence=RRIRWRPPRLPRPRPRPNCAPRP endpoint_result=0.255
monomer_sequence=RRIRNRPPRLPRPRPRPQKWPRP endpoint_result=-0.0202
monomer_sequence=RRIRPRPPRLPRPRPRPVRPPRP endpoint_result=0.854
monomer_sequence=RRIRHRPPRLPRPRPRPGMRPRP endpoint_result=0.163
monomer_sequence=RRIRFRPPRLPRPRPRPLWGPRP endpoint_result=0.251
